Reported IC50 values for the following compounds.
# Tested on: VERO
# experiment: Anti-proliferation IC50, VERO
# Format: cell-based
# experimentalParameters: Chlorocebus sabaeus, Table 1, compounds of formula I, NI = no inhibition up to 500 μM, read-out: VERO (IC50)

// worked examples, IC50 included
O=C(O)/C=C/C=C/c1ccc2c(c1)OCO2 [Piperic acid (PPA), Piperic acid, reference compound]	> 500 µM
O=C(O)CCCCC1CCSS1 (stereo not drawn) [Lipoic acid (ALA), Lipoic acid, reference compound]	> 500 µM

// switching to the query compound
What does the record list as IC50 for CC[C@H]1OC(=O)[C@@H](C)[C@@H](O[C@@H]2C[C@](C)(OC)[C@H](O)[C@@H](C)O2)[C@@H](C)[C@@H](O[C@H]2O[C@@H](C)C[C@@H](N(C)C)[C@@H]2OC(=O)/C=C/C=C/c2ccc3c(c2)OCO3)[C@](C)(OC)C[C@@H](C)C(=O)[C@H](C)[C@H](O)[C@]1(C)O ?
21 µM

###

# Tested on: VERO
# experiment: Anti-proliferation IC50, VERO
# Type: cell-based
# experimentalParameters: Chlorocebus sabaeus, Table 1, compounds of formula I, NI = no inhibition up to 500 μM, read-out: VERO (IC50)
valueKind: pIC50
# pIC50 = -log10(concentration in molar units)

CCC1OC(=O)[C@H](C)[C@H](OC2C[C@@](C)(OC)[C@@H](O)[C@H](C)O2)[C@H](C)[C@@H](OC2O[C@H](C)C[C@H](N(C)CC#Cc3ccc(-n4cc(C)ccc4=O)cc3)[C@H]2O)[C@@](C)(OC)C[C@@H](C)C(=O)[C@H](C)[C@@H](O)[C@]1(C)O (some centres unmarked) [Compound 19a]	4.26

What value of pIC50 has been recorded for this entry: CCC1OC(=O)[C@H](C)[C@H](OC2C[C@@](C)(OC)[C@@H](O)[C@H](C)O2)[C@H](C)[C@@H](OC2O[C@H](C)C[C@H](N(C)Cc3cn(CCc4ccc(-n5cc(C)ccc5=O)cc4)nn3)[C@H]2O)[C@@](C)(OC)C[C@@H](C)C(=O)[C@H](C)[C@@H](O)[C@]1(C)O (some centres unmarked) [Compound 12b]
3.98

###

# experiment: Anti-proliferation IC50, MRC-5
# Assay type: cell-based
# experimentalParameters: human, MRC-5 cells; Table 1, compounds of formula I; NI = no inhibition up to 500 μM
valueKind: IC50 (µM)
Report only the number, with the unit µM understood.

I would be grateful if you could share the reported IC50 for CC[C@H]1OC(=O)[C@@H](C)[C@@H](O[C@H]2C[C@@](C)(OC)[C@@H](O)[C@H](C)O2)[C@@H](C)[C@@H](O[C@H]2O[C@@H](C)C[C@@H](N(C)Cc3ccc(-c4cn(CCCNC(=O)CCCC[C@H]5CCSS5)nn4)cc3)[C@@H]2O)[C@](C)(OC)C[C@@H](C)C(=O)[C@H](C)[C@H](O)[C@]1(C)O .
51.6

###

# System: VERO
# experiment: Anti-proliferation IC50, VERO
# Format: cell-based
# experimentalParameters: Chlorocebus sabaeus, Table 1, compounds of formula I, NI = no inhibition up to 500 μM, read-out: VERO (IC50)
Where a name gives a salt, the structure may show the parent alone.
valueKind: pIC50
On this scale, pIC50 is minus log10 of a concentration expressed in M (mol/L).

Take a look at these entries with their results.
CCCCOC(=O)/C=C/C(=O)N(C)[C@@H]1C[C@H](C)O[C@H](O[C@@H]2[C@H](C)[C@H](O[C@H]3C[C@@](C)(OC)[C@@H](O)[C@H](C)O3)[C@H](C)C(=O)O[C@H](CC)[C@@](C)(O)[C@@H](O)[C@@H](C)C(=O)[C@H](C)C[C@@]2(C)OC)[C@H]1O	4.17
CC[C@H]1OC(=O)[C@H](C)[C@@H](O[C@H]2C[C@@](C)(OC)[C@@H](O)[C@H](C)O2)[C@H](C)[C@@H](O[C@@H]2O[C@H](C)C[C@H](N(C)C)[C@H]2O)[C@](C)(O)C[C@@H](C)CN(C)[C@H](C)[C@@H](O)[C@]1(C)O [Azithromycin (AZM), Azithromycin, reference compound]	3.65
CCC1OC(=O)[C@H](C)[C@H](OC2C[C@@](C)(OC)[C@@H](O)[C@H](C)O2)[C@H](C)[C@@H](OC2O[C@H](C)C[C@H](N(C)CCC#Cc3ccc(-n4cc(C)ccc4=O)cc3)[C@H]2O)[C@@](C)(OC)C[C@@H](C)C(=O)[C@H](C)[C@@H](O)[C@]1(C)O (some centres unmarked) [Compound 19b]	3.88
COC(=O)/C=C/C(=O)OC [Dimethyl Fumarate, reference compound]	3.07
CCC1OC(=O)[C@H](C)[C@H](OC2C[C@@](C)(OC)[C@@H](O)[C@H](C)O2)[C@H](C)[C@@H](OC2O[C@H](C)C[C@H](N(C)CCCCC#Cc3ccc(-n4cc(C)ccc4=O)cc3)[C@H]2O)[C@@](C)(OC)C[C@@H](C)C(=O)[C@H](C)[C@@H](O)[C@]1(C)O (some centres unmarked) [Compound 19d]	4.61

Now for a further compound.
Returns the measured pIC50 for the input compound. Input: CC[C@H]1OC(=O)[C@@H](C)[C@@H](O[C@H]2C[C@@](C)(OC)[C@@H](O)[C@H](C)O2)[C@@H](C)[C@@H](O[C@H]2O[C@@H](C)C[C@@H](N(C)C)[C@@H]2OC(=O)/C=C/C(=O)OC)[C@](C)(OC)C[C@@H](C)C(=O)[C@H](C)[C@H](O)[C@]1(C)O
3.66

###

# Lookup of reported IC50 keyed by entry
# Tested on: Hep-G2
# experiment: Anti-proliferation IC50, Hep-G2
# Format: cell-based
# experimentalParameters: Homo sapiens, HepG2; Table 1, compounds of formula I; NI = no inhibition up to 500 μM; read-out: Hep-G2 (IC50)
Write it as a number; the unit µM goes unstated.

Please give the measured IC50 for this compound: CCC1OC(=O)[C@H](C)[C@H](OC2C[C@@](C)(OC)[C@@H](O)[C@H](C)O2)[C@H](C)[C@@H](OC2O[C@H](C)C[C@H](N(C)Cc3cn(CCCCc4ccc(-n5cc(C)ccc5=O)cc4)nn3)[C@H]2O)[C@@](C)(OC)C[C@@H](C)C(=O)[C@H](C)[C@@H](O)[C@]1(C)O (stereo partly drawn) [Compound 14b]
44.8

Given CCC1OC(=O)[C@H](C)[C@H](OC2C[C@@](C)(OC)[C@@H](O)[C@H](C)O2)[C@H](C)[C@@H](OC2O[C@H](C)C[C@H](N(C)Cc3ccc(-c4cn(CCc5ccc(-n6cc(C)ccc6=O)cc5)nn4)cc3)[C@H]2O)[C@@](C)(OC)C[C@@H](C)C(=O)[C@H](C)[C@@H](O)[C@]1(C)O (stereo partly drawn) [Compound 12c] , state its recorded IC50.
28.1

May I ask what IC50 has been recorded for CC[C@H]1OC(=O)[C@@H](C)[C@@H](O[C@H]2C[C@@](C)(OC)[C@@H](O)[C@H](C)O2)[C@@H](C)[C@@H](O[C@H]2O[C@@H](C)C[C@@H](N(C)Cc3ccc(-c4cn(CCNC(=O)CCCC[C@H]5CCSS5)nn4)cc3)[C@@H]2O)[C@](C)(OC)C[C@@H](C)C(=O)[C@H](C)[C@H](O)[C@]1(C)O ?
57.3

###

# Test system: A549
# experiment: Anti-proliferation IC50, A549
# Format: cell-based
# experimentalParameters: Homo sapiens, Table 1, compounds of formula I, NI = no inhibition up to 500 μM, read-out: A549 (IC50)
Where a name gives a salt, the structure may show the parent alone.
Lab note: anything with IC50 below 60 µM is marked true; values at 60 µM or higher are marked false.

// known answers, use as guide
CC[C@H]1OC(=O)[C@H](C)[C@@H](O[C@H]2C[C@@](C)(OC)[C@@H](O)[C@H](C)O2)[C@H](C)[C@@H](O[C@@H]2O[C@H](C)C[C@H](N(C)C)[C@H]2O)[C@](C)(O)C[C@@H](C)CN(C)[C@H](C)[C@@H](O)[C@]1(C)O [Azithromycin (AZM), Azithromycin, reference compound]	false
CCC1OC(=O)[C@H](C)[C@H](OC2C[C@@](C)(OC)[C@@H](O)[C@H](C)O2)[C@H](C)[C@@H](OC2O[C@H](C)C[C@H](N(C)CC#Cc3ccc(-n4cc(C)ccc4=O)cc3)[C@H]2O)[C@@](C)(OC)C[C@@H](C)C(=O)[C@H](C)[C@@H](O)[C@]1(C)O (stereo partly drawn) [Compound 19a]	true
CCC1OC(=O)[C@H](C)[C@H](OC2C[C@@](C)(OC)[C@@H](O)[C@H](C)O2)[C@H](C)[C@@H](OC2O[C@H](C)C[C@H](N(C)Cc3ccc(-c4cn(Cc5ccc(-n6cc(C)ccc6=O)cc5)nn4)cc3)[C@H]2O)[C@@](C)(OC)C[C@@H](C)C(=O)[C@H](C)[C@@H](O)[C@]1(C)O (stereo partly drawn) [Compound 10c]	true
CCC1OC(=O)[C@H](C)[C@H](OC2C[C@@](C)(OC)[C@@H](O)[C@H](C)O2)[C@H](C)[C@@H](OC2O[C@H](C)C[C@H](N(C)Cc3cn(Cc4ccc(-n5cc(C)ccc5=O)cc4)nn3)[C@H]2O)[C@@](C)(OC)C[C@@H](C)C(=O)[C@H](C)[C@@H](O)[C@]1(C)O (stereo partly drawn) [Compound 10b]	false
CCC1OC(=O)[C@H](C)[C@H](OC2C[C@@](C)(OC)[C@@H](O)[C@H](C)O2)[C@H](C)[C@@H](OC2O[C@H](C)C[C@H](N(C)CCCCc3ccc(-n4cc(C)ccc4=O)cc3)[C@H]2O)[C@@](C)(OC)C[C@@H](C)C(=O)[C@H](C)[C@@H](O)[C@]1(C)O (stereo partly drawn) [Compound 14a]	true
CCC1OC(=O)[C@H](C)[C@H](OC2C[C@@](C)(OC)[C@@H](O)[C@H](C)O2)[C@H](C)[C@@H](OC2O[C@H](C)C[C@H](N(C)Cc3cn(CCc4ccc(-n5cc(C)ccc5=O)cc4)nn3)[C@H]2O)[C@@](C)(OC)C[C@@H](C)C(=O)[C@H](C)[C@@H](O)[C@]1(C)O (stereo partly drawn) [Compound 12b]	false
COC(=O)/C=C/C(=O)OC [Dimethyl Fumarate, reference compound]	false
Cc1ccc(=O)n(-c2ccccc2)c1 [Pirfenidone (Pir), Pirfenidone, reference compound]	false
CC[C@H]1OC(=O)[C@@H](C)[C@@H](O[C@H]2C[C@@](C)(OC)[C@@H](O)[C@H](C)O2)[C@@H](C)[C@@H](O[C@H]2O[C@@H](C)C[C@@H](N(C)C)[C@@H]2OC(=O)/C=C/C(=O)OC)[C@](C)(OC)C[C@@H](C)C(=O)[C@H](C)[C@H](O)[C@]1(C)O	false
CCC1OC(=O)[C@H](C)[C@H](OC2C[C@@](C)(OC)[C@@H](O)[C@H](C)O2)[C@H](C)[C@@H](OC2O[C@H](C)C[C@H](N(C)Cc3ccc(-n4cc(C)ccc4=O)cc3)[C@H]2O)[C@@](C)(OC)C[C@@H](C)C(=O)[C@H](C)[C@@H](O)[C@]1(C)O (stereo partly drawn) [Compound 10a]	false

Strictly below 60 µM: is that where IC50 of O=C(O)/C=C/C=C/c1ccc2c(c1)OCO2 [Piperic acid (PPA), Piperic acid, reference compound] sits?
false

Lab log: compare recorded IC50 with 60 µM; is it strictly lower for CC[C@H]1OC(=O)[C@@H](C)[C@@H](O[C@@H]2C[C@](C)(OC)[C@H](O)[C@@H](C)O2)[C@@H](C)[C@@H](O[C@H]2O[C@@H](C)C[C@@H](N(C)C)[C@@H]2OC(=O)CCCC[C@H]2CCSS2)[C@](C)(OC)C[C@@H](C)C(=O)[C@H](C)[C@H](O)[C@]1(C)O ?
false

Does CC[C@H]1OC(=O)[C@@H](C)[C@@H](O)[C@@H](C)[C@@H](O[C@H]2O[C@@H](C)C[C@@H](N(C)C)[C@@H]2OC(=O)CCCC[C@H]2CCSS2)[C@](C)(OC)C[C@@H](C)C(=O)[C@H](C)[C@H](O)[C@]1(C)O have IC50 strictly under 60 µM?
false
